- assaySummary: Permeability of the compound in simulated dialysis membrane at pH 6.8 measured within 6 hrs by Franz diffusion cell-based spectrophotometric method
- Format: ADME, cell membranes
- condition: artificial membrane, pH 6.8, 6 h
measurementLabel: permeability
Write the quantity with the unit trailing the number.

>>> print(df.to_string())
                             moleculesmiles  observedmeasurement
0  C[C@@H]1[C@@H](O)[C@H](O)[C@@H](c2ccccc2)N1C                49.8%
1  COc1ccc([C@@H]2[C@@H](O)[C@H](O)[C@@H](C)N2C)cc1                60.7%
2  COCc1ccc([C@@H]2[C@@H](O)[C@H](O)[C@@H](C)N2C)cc1                62.7%
3  Cc1ccc([C@@H]2[C@@H](O)[C@H](O)[C@@H](C)N2C)cc1                56.3%
4  COc1cc([C@@H]2[C@@H](O)[C@H](O)[C@@H](C)N2C)c(F)c(C)c1OC                72.9%
5  COc1ccc([C@@H]2[C@@H](O)[C@H](O)[C@@H](C)N2C)cc1OC                67.2%

// sample COc1ccc([C@@H]2[C@@H](O)[C@H](O)[C@@H](C)N2C)c(F)c1 , its permeability was 59.1%
